Recorded selectivity ratio values for a group of compounds are listed next.
- Test Details: Protective index, ratio of TD50 for neurotoxicity in ip dosed albino Sprague-Dawley rat to ED50 for anticonvulsant activity in ip dosed maximal electroshock-induced seizure albino Sprague-Dawley rat model
- Type: toxicity, organism-based
- Run Parameters: in vivo, read-out: Ratio TD50/ED50

Use these answered entries as a reference point.
CCCC(CCC)COC(=O)NCCCn1ccnc1 | 7.3
CCCC(COC(=O)NCCCn1ccnc1)C(C)CC (centres undefined) | 4.8
CC(COC(=O)NCCCn1ccnc1)CC(C)(C)C (centres undefined) | 4.1

Ask: Endpoint output: selectivity ratio of CCCC(CC)OC(=O)NCCCn1ccnc1 (centres undefined) . Value?
Result: 5.4

###

- System: Rattus norvegicus
- Test Details: Anticonvulsant activity in ip dosed albino Sprague-Dawley rat assessed as protection against subcutaneous metrazol-induced seizures
- Type: functional
Each entry below lists one item and its recorded ED50 value.

Solved entries:
CCCC(COC(=O)NCCCn1ccnc1)C(C)CC (centres undefined) | > 95 mg/kg
CC(COC(=O)NCCCn1ccnc1)CC(C)(C)C (centres undefined) | > 70 mg/kg
CCCC(CC)OC(=O)NCCCn1ccnc1 (centres undefined) | > 92 mg/kg

# ---- query molecule ----
Ask: Given the molecule "CCCC(CCC)COC(=O)NCCCn1ccnc1" , what is its reported ED50?
Result: > 88 mg/kg

###

- Tested on: Rattus norvegicus
- Test Details: Neurotoxicity in albino Sprague-Dawley rat assessed as behavioral impairment at 30 mg/kg, po after 0.5 hrs by rotorod test
- Format: toxicity, organism-based
- Run Parameters: in vivo
Measurement Kind: Activity

Check out these entries, answers already filled in.
O=C(NCCCn1ccnc1)OCCc1ccccc1 | Non-toxic
CC(C)(C)COC(=O)NCCCn1ccnc1 | Non-toxic
CCCC(CCC)COC(=O)NCCCn1ccnc1 | Non-toxic
CCC(C)C(C)OC(=O)NCCCn1ccnc1 (centres undefined) | Non-toxic
CCCC(CC)OC(=O)NCCCn1ccnc1 (centres undefined) | Non-toxic

Ask: Data request, read-out Activity, for "CC(C)(C)CCOC(=O)NCCCn1ccnc1"
Result: Non-toxic

Ask: Now this one: CC(COC(=O)NCCCn1ccnc1)CC(C)(C)C (centres undefined)
Result: Non-toxic

Ask: And then "CCC(CC)COC(=O)NCCCn1ccnc1" , what is it?
Result: Non-toxic

Ask: Now the same for CCCC(COC(=O)NCCCn1ccnc1)C(C)CC (centres undefined)
Result: Non-toxic

###

- Test Details: Protective index, ratio of TD50 for neurotoxicity in ip dosed albino CF1 mouse to ED50 for anticonvulsant activity in ip dosed maximal electroshock-induced seizure albino CF1 mouse model
- Type: toxicity, organism-based
- Run Parameters: in vivo, read-out: Ratio TD50/ED50
Please respond with 1 when measured selectivity ratio is strictly beneath 3, and with -1 in all other cases.

CCC(CC)COC(=O)NCCCn1ccnc1 | -1
CCCC(COC(=O)NCCCn1ccnc1)C(C)CC (stereo unspecified) | 1

Ask: Quick check: selectivity ratio of "CCCC(CCC)COC(=O)NCCCn1ccnc1" under 3?
Result: -1

Ask: Continue with NC(=O)OCC(COC(N)=O)c1ccccc1 [FELBAMATE]
Result: -1

Ask: Thanks! And "O=C(NCCCn1ccnc1)OCCc1ccccc1" ?
Result: -1

Ask: Subsequent entry: CCCC(CC)OC(=O)NCCCn1ccnc1 (stereo unspecified)
Result: -1
